Target: C1r from human plasma, activated, two-chain form (Homo sapiens)
Sequence (P00736 18-463 partner limits assumed): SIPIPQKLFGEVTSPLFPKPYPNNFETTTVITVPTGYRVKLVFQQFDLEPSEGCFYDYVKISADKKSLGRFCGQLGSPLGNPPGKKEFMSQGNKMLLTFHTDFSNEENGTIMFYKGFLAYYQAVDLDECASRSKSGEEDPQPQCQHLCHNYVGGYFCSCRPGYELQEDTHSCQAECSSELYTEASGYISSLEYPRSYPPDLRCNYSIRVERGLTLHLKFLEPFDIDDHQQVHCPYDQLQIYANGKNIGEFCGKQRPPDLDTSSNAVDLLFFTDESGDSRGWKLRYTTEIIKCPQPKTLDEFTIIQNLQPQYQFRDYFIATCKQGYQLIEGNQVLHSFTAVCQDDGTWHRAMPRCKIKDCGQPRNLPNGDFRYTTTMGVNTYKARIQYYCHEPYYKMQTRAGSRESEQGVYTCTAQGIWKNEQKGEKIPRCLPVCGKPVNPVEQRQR
Sequence (P00736 464-705 limits assumed): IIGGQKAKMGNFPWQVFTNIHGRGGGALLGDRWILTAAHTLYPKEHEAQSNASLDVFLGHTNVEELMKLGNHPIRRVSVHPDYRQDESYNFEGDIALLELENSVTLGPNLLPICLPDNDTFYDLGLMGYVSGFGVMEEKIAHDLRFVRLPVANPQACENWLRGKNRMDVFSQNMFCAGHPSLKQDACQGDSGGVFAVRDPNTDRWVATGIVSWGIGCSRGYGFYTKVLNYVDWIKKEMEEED
Assay: Color substrate test for C1r inhibition (Example A)
Details: amidolytic C1r activity, substrate Cbz-Gly-Arg-S-Bzl; read-out: C1R IC50 according to Example A
pIC50: −log10 of the molar value.
assay.metric: pIC50

Cc1c(C(=N)N)csc1CNC(=O)[C@@H]1C=CCN1C(=O)[C@H](NCC(=O)O)C1CCCCC1 [Example 51] = 4.40

I: N=C(N)c1ccc(CNC(=O)[C@@H]2C=CCN2C(=O)[C@@H](CC2CCCCC2)NS(=O)(=O)Cc2ccc(N)cc2)cn1 [Example 21]
II: N=C(N)c1csc(CNC(=O)[C@@H]2CC3CCCCC3N2C(=O)[C@H](NCC(=O)O)C2CCCCC2)c1 (some centres unmarked) [Example 48]
**Q:** For the two items I and II , which reports the higher pIC50 value? Refer to your chosen item by its label in the answer.
**A:** I
(I: 5.40, II: 4.30)

a: N=C(N)c1ccc(CNC(=O)[C@@H]2C=CCN2C(=O)[C@@H](CC2CCCCC2)NS(=O)(=O)Cc2ccccc2)cn1 [Example 15]
b: N=C(N)c1csc(CNC(=O)[C@@H]2CCCN2C(=O)[C@H](NCC(=O)O)C2CCCCC2)c1 [Example 43]
**Q:** For the two items a and b , which reports the higher pIC50 value? Refer to your chosen item by its label in the answer.
**A:** a

a: CC(C)(C)OC(=O)Nc1ccc(CS(=O)(=O)N[C@H](CC2CCCCC2)C(=O)N2CC=C[C@H]2C(=O)NCc2ccc(C(=N)N)nc2)cc1 [Example 20]
b: CS(=O)(=O)N[C@H](CC1CCCCC1)C(=O)N1CC=C[C@H]1C(=O)NCc1ccc(C(=N)N)cc1 [Example 4, CH3—SO2-(D)Cha-Pyr-NH-p-amb.CH3COOH]
**Q:** Record comparison, field pIC50: mark the lower of a and b . Refer to your chosen item by its label in the answer.
**A:** b
(b: 4.52, a: 6.22)
